Every entry's value here was drawn from patent US20120077957A1.

target_under_test: human melanocortin-4 receptor (recombinant hMC4-R) (human, UniProt P32245 1-332)
Sequence (P32245 whole entry): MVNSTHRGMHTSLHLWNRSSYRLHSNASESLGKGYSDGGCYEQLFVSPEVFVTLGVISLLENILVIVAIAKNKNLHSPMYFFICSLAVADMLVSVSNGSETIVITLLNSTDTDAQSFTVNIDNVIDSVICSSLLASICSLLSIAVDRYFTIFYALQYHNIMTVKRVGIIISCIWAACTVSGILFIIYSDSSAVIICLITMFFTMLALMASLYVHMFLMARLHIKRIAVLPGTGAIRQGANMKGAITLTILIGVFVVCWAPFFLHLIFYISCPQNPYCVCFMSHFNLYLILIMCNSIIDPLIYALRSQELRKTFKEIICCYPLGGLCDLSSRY
test_name: cell-based or functional assay
Bridge positions count the residues as written; N and C are the ends. Square brackets hold non-standard residues; d marks the D form.
property_label: Ec50 (nM), cAMP
Reply numerically in nM, unit not repeated.

{"binder": "Ac-RDP[dF]RWK-NH2 (lactam 2-7, also called Peptide Structure (Asp...Lys) in the row of No. 47) [Asp...Lys analog of peptide No. 47: Ac-Arg-cyclo(Asp-Pro-D-Phe-Arg-Trp-Lys)-NH2]", "units": "nM", "Ec50 (nM), cAMP": 9}

Query binder follows.
Return the recorded Ec50 (nM), cAMP value; entry: Ac-RDN[dF]RWK-NH2 (lactam 2-7; SMILES CC(=O)N[C@@H](CCCNC(=N)N)C(=O)N[C@H]1CC(=O)NCCCC[C@@H](C(N)=O)NC(=O)[C@H](Cc2c[nH]c3ccccc23)NC(=O)[C@H](CCCNC(=N)N)NC(=O)[C@@H](Cc2ccccc2)NC(=O)[C@H](CC(N)=O)NC1=O, also called Peptide Structure (Asp...Lys) in the rows of No. 34 and No. 46) [Asp...Lys analog of peptides No. 34 and No. 46: Ac-Arg-cyclo(Asp-Asn-D-Phe-Arg-Trp-Lys)-NH2] 42
